# protocolText: in vitro
# testContext: African green monkey, VeroE6 + CP (CC50), Vero E6-eGFP cells with CP-100356, absence of virus, MTS; numeric bounds
assayMetric: CC50

Example compounds with recorded CC50:
compound: O=C1NCC[C@H]1C[C@H](NC(=O)[C@@H]1[C@H]2CCC[C@H]2CN1C(=O)c1ccc(-c2ccccc2)[nH]1)C(=O)CO
CC50: > 50 µM
--
compound: O=C1NCC[C@H]1C[C@H](NC(=O)[C@@H]1[C@H]2CCC[C@H]2CN1C(=O)c1cc2ccsc2[nH]1)C(=O)CO
CC50: > 50 µM
--
compound: O=C1NCC[C@H]1C[C@H](NC(=O)[C@@H]1[C@H]2CCC[C@H]2CN1C(=O)c1cc2c3c(ccc2[nH]1)CCO3)C(=O)CO
CC50: > 50 µM
--
compound: COc1nccc2[nH]c(C(=O)N3C[C@@H]4CCC[C@@H]4[C@H]3C(=O)N[C@@H](C[C@@H]3CCNC3=O)C(=O)CO)cc12
CC50: > 50 µM
--
compound: CC1(C)CCN(C(=O)c2cc3ccccc3[nH]2)[C@H](C(=O)NC(C[C@@H]2CCNC2=O)C(=O)C(=O)NCc2ccccc2)C1 (stereo partly drawn)
CC50: > 100 µM
--
compound: O=C(NCc1ccccc1)C(=O)[C@H](Cc1cccnc1)NC(=O)[C@@H]1CC2(CC2)CN1C(=O)c1cc2ccccc2[nH]1
CC50: > 100 µM
--
compound: COc1cccc2[nH]c(C(=O)N3C[C@@H]4CCC[C@@H]4[C@H]3C(=O)NC(C[C@@H]3CCCNC3=O)C(=O)C(=O)NC3CC3)cc12 (stereo partly drawn)
CC50: > 100 µM
--
compound: CC1(C)[C@@H]2[C@@H](C(=O)N[C@@H](C[C@@H]3CCNC3=O)C(=O)CO)N(C(=O)c3cc4c(Cl)cc(Cl)cc4[nH]3)C[C@@H]21
CC50: > 50 µM

Value lookup for CC50; key = `CS(=O)(=O)Oc1cccc2[nH]c(C(=O)N3C[C@@H]4CCC[C@@H]4[C@H]3C(=O)N[C@@H](C[C@@H]3CCNC3=O)C(=O)CO)cc12`
> 50 µM

Another compound to look at: `CCOC(=O)c1cc(C(=O)N2C[C@@H]3CCC[C@@H]3[C@H]2C(=O)N[C@@H](C[C@@H]2CCNC2=O)C(=O)CO)[nH]c1C`
> 50 µM

Same thing, different compound: COc1cccc2[nH]c(C(=O)N3C[C@]4(C[C@H]3C(=O)NC(C=O)C[C@@H]3CCCNC3=O)CC4(F)F)cc12 (stereo partly drawn)
> 100 µM

Cool, now `O=C1NCC[C@H]1C[C@H](NC(=O)[C@@H]1[C@H]2CCC[C@H]2CN1C(=O)c1cc2c(Cl)cc(C(F)(F)F)cc2[nH]1)C(=O)CO`
> 50 µM
